measured endpoint: melting point

As a guide, the following entries are already answered.
{"molecule": "CC(C)CN1C(=O)C(NC(=O)[C@H](C)NC(=O)Cc2cc(F)cc(F)c2)C(=O)N(CC(C)C)c2ccccc21", "measured endpoint": "melting point", "endpoint result": "197 to 198 °C"}
{"molecule": "C[C@H](NC(=O)Cc1cc(F)cc(F)c1)C(=O)NC1C(=O)N(Cc2ccccc2)Cc2ccccc21 (stereo partly drawn)", "measured endpoint": "melting point", "endpoint result": "144 to 145 °C"}
{"molecule": "C[C@H](NC(=O)Cc1cc(F)cc(F)c1)C(=O)NC1C(=O)NC(c2ccccn2)c2ccccc21 (stereo partly drawn)", "measured endpoint": "melting point", "endpoint result": "100 °C"}
{"molecule": "C[C@H](NC(=O)C(F)c1cc(F)cc(F)c1)C(=O)NC1N=C(c2ccccc2)c2ccccc2N(C)C1=O (single isomer, unassigned)", "measured endpoint": "melting point", "endpoint result": "119 to 120 °C"}
{"molecule": "CCOC(=O)[C@H](C)NC(=O)Cc1cc(F)cc(F)c1", "measured endpoint": "melting point", "endpoint result": "93 to 95 °C"}
{"molecule": "C[C@H](NC(=O)Cc1cc(F)cc(F)c1)C(=O)NC1C(=O)NCc2cc(-c3ccccc3)ccc21 (stereo partly drawn)", "measured endpoint": "melting point", "endpoint result": "> 240 °C (dec.)"}
{"molecule": "C[C@H](NC(=O)C(O)c1cc(F)cc(F)c1)C(=O)NC1C(=O)N(C)c2ccccc2N(c2ccccc2)C1=O (single isomer, unassigned)", "measured endpoint": "melting point", "endpoint result": "255 to 256 °C"}
{"molecule": "CN1C(=O)C(NC(=O)[C@@H](NC(=O)Cc2cc(F)cc(F)c2)C(C)(C)C)N=C(c2ccccc2)c2ccccc21 (stereo partly drawn)", "measured endpoint": "melting point", "endpoint result": "221 to 222 °C"}

Query :: # melting point lookup, item C[C@H](NC(=O)Cc1cc(F)cc(F)c1)C(=O)NC1C(=O)NCc2cc(F)ccc21 (single isomer, unassigned)
Result :: 195 to 200 °C

Query :: I would be grateful if you could share the reported melting point for CC1NC(=O)C(NC(=O)[C@H](C)NC(=O)Cc2cc(F)cc(F)c2)c2ccccc21 (stereo partly drawn) .
Result :: 205 to 206 °C

Query :: Name the recorded melting point for C[C@H](NC(=O)Cc1cc(F)cc(F)c1)C(=O)NC1C(=O)NC(Cc2ccccc2)c2ccccc21 (stereo partly drawn) .
Result :: 106 to 107 °C

Query :: Field request: melting point | item: CC(C)[C@H](NC(=O)Cc1cc(F)cc(F)c1)C(=O)NC1N=C(c2ccccc2)c2ccccc2N(C)C1=O (stereo partly drawn)
Result :: 228 to 229 °C

Query :: Form field: reported melting point of C[C@H](NC(=O)Cc1ccccc1)C(=O)NC1CCCNC(=O)C1 (stereo partly drawn)
Result :: 200 to 202 °C

Query :: Requested read-out: melting point. Entry: C[C@H](NC(=O)C(O)C1CCCC1)C(=O)NC1C(=O)N(CC(C)(C)C)c2ccccc2N(CC(C)(C)C)C1=O (stereo partly drawn)
Result :: 119 to 129 °C

Query :: What does the record list as melting point for C[C@H](NC(=O)C(=O)c1cc(F)cc(F)c1)C(=O)NC1N=C(c2ccccc2)c2ccccc2N(C)C1=O (stereo partly drawn) ?
Result :: 128 to 129 °C

Query :: Query (molecule): C[C@H](NC(=O)C(O)c1cc(F)cc(F)c1)C(=O)NC1N=C(c2ccccc2)c2ccccc2N(C)C1=O (single isomer, unassigned) ; field requested: melting point
Result :: 240 to 241 °C

Query :: GET /values?readout=melting point&item= `CC(C)N1C(=O)C(NC(=O)[C@H](C)NC(=O)Cc2cc(F)cc(F)c2)C(=O)N(C(C)C)c2ccccc21`
Result :: 232 to 233 °C

---

melting point values by entry

# count of solved cases: 5
{"compound": "CN1C(=O)C(NC(=O)Cc2cc(F)cc(F)c2)N=C(c2ccccc2)c2ccccc21 (centres unmarked)", "endpoint result": "236 to 239 °C"}
{"compound": "C[C@H](NC(=O)Cc1cc(F)cc(F)c1)C(=O)NC1Cc2ccccc2N(Cc2ccccc2)C1=O (some centres unmarked)", "endpoint result": "196 to 199 °C"}
{"compound": "C[C@H](NC(=O)Cc1cc(F)cc(F)c1)C(=O)N[C@@H]1CSc2ccccc2N(C)C1=O", "endpoint result": "156 to 159 °C"}
{"compound": "C[C@H](NC(=O)Cc1cc(F)cc(F)c1)C(=O)NC1C(=O)NC(c2ccncc2)c2ccccc21 (some centres unmarked)", "endpoint result": "100 °C"}
{"compound": "CC(C)COC(=O)[C@H](C)NC(=O)CC1CCCC1", "endpoint result": "62 to 64 °C"}

Query :: # melting point lookup, item `C[C@H](NC(=O)Cc1cc(F)cc(F)c1)C(=O)NC1C(=O)N(C)c2ccccc2N(C)C1=O`
Result :: 206 to 207 °C

Query :: // returns reported melting point for input `CC(C)COC(=O)[C@H](C)NC(=O)CC1CCCCC1`
Result :: 92 to 93 °C

Query :: Which value of melting point has been reported for C[C@H](NC(=O)Cc1cc(F)cc(F)c1)C(=O)NC1C(=O)NCc2cc(Cc3ccccc3)ccc21 (some centres unmarked) in the records?
Result :: 159 to 166 °C

---

Property: melting point; scope: individual compounds

Past entries and their recorded results:
{"compound": "CCN1C(=O)C(NC(=O)[C@H](C)NC(=O)Cc2cc(F)cc(F)c2)N=C(c2ccccc2)c2ccccc21 (stereo partly shown)", "measured endpoint": "melting point", "endpoint result": "155 to 158 °C"}
{"compound": "C[C@H](NC(=O)Cc1cc(F)cc(F)c1)C(=O)NC1C(=O)NCc2ccccc21 (stereo partly shown) [Example 5-7]", "measured endpoint": "melting point", "endpoint result": "243 to 244 °C"}
{"compound": "C[C@H](NC(=O)Cc1cc(F)cc(F)c1)C(=O)N[C@H]1COc2ccccc2N(C)C1=O [Example 6-10]", "measured endpoint": "melting point", "endpoint result": "110 to 114 °C"}
{"compound": "C[C@H](NC(=O)Cc1cc(F)cc(F)c1)C(=O)NC1C(=O)NC(c2ccccc2)c2ccccc21 (single isomer, unassigned) [Example 5-10]", "measured endpoint": "melting point", "endpoint result": "200 to 205 °C"}
{"compound": "C[C@H](NC(=O)Cc1cc(F)cc(F)c1)C(=O)NC1C(=O)N(CCc2ccccc2)Cc2ccccc21 (stereo partly shown) [Example 5-13]", "measured endpoint": "melting point", "endpoint result": "75 to 76 °C"}

Query :: Return reported melting point; argument: CCN1C(=O)[C@@H](NC(=O)[C@H](C)NC(=O)Cc2cc(F)cc(F)c2)COc2ccccc21 [Example 6-11]
Result :: 188 to 191 °C

Query :: Which melting point is reported for this compound? C[C@H](NC(=O)Cc1cc(F)cc(F)c1)C(=O)NC1C(=O)N(C)Cc2ccccc21 (stereo partly shown) [Example 5-14]
Result :: 174 to 175 °C

Query :: I have this compound here, C[C@H](NC(=O)Cc1cc(F)cc(F)c1)C(=O)NC1C(=O)NC(c2cccnc2)c2ccccc21 (stereo partly shown) [Example 5-38] , and I need its recorded melting point.
Result :: 100 to 120 °C

Query :: What value of melting point has been reported for the following compound? C[C@H](NC(=O)Cc1cc(F)cc(F)c1)C(=O)NC1CCCCCNC(=O)C1 (stereo partly shown) [Example 5-33]
Result :: > 220 °C

Query :: Recorded melting point for CCC(=S)N[C@@H](C)C(=O)NC1N=C(c2ccccc2)c2ccccc2N(C)C1=O (stereo partly shown) , please?
Result :: 205 to 206 °C

Query :: For the compound shown here, CC1CC(NC(=O)[C@H](C)NC(=O)Cc2cc(F)cc(F)c2)C(=O)N(C)c2ccccc21 (stereo partly shown) [Example 6-8] , give the reported melting point.
Result :: 115 to 119 °C

Query :: Quick one: melting point of CC(Nc1ccc(Cl)c(Cl)c1)C(=O)NC1CCCNC(=O)C1 (racemic) [Example 5-31] ?
Result :: 199 °C

Query :: Please look up its melting point: CC(C)COC(=O)[C@H](C)NC(=O)CC1=CCCCC1 [Example B72]
Result :: 49 to 51 °C

Query :: What does the record list as melting point for CC1CC(NC(=O)Cc2cc(F)cc(F)c2)C(=O)N(C)c2ccccc21 (stereo not shown) [Example 6-9] ?
Result :: 185 to 187 °C

Query :: Record request: melting point value, item COC(=O)[C@@H](NC(=O)CC1CCCC1)c1ccccc1 [Example B77]
Result :: 83 to 86 °C

Query :: // melting point lookup, key: C[C@H](NC(=O)Cc1cc(F)cc(F)c1)C(=O)NC1N=C(c2ccccc2)c2ccccc2N(CC2CC2)C1=O (stereo partly shown)
Result :: 203 to 205 °C
